- Tested on: 'CCR5' cells / Hut/4-3 cells co-cultivation
- Experimental Details: FIGS-Assay (co-cultivated cell cultures, beta-galactosidase/ONPG read-out)
- Format: cell-based
- Particulars: at 200 nM; 48 hours of co-cultivation
Where a SMILES comes first, the peptide text is derived from it. Bridges are numbered along the chain shown (N, C = ends). [ ]: non-standard residue; d: D form. Phe(4-NH2) = Nc1ccc(C[C@H](N)C(=O)O)cc1; 2Nal = N[C@@H](Cc1ccc2ccccc2c1)C(=O)O; Cit = NC(=O)NCCC[C@H](N)C(=O)O
Experimental Readout: FIGS % inhibition at 200 nM (%)

Compound: N=C(N)NCCC[C@H](NC(=O)[C@@H]1CSSC[C@H](NC(=O)[C@H](Cc2ccc(N)cc2)NC(=O)[C@H](CCCNC(=N)N)NC(=O)[C@@H](N)CCCNC(=N)N)C(=O)N[C@@H](Cc2ccc(O)cc2)C(=O)N[C@@H](CCCNC(N)=O)C(=O)N[C@@H](CCCCN)C(=O)N2CCC[C@@H]2C(=O)N2CCC[C@H]2C(=O)N[C@@H](Cc2ccc(O)cc2)C(=O)N[C@@H](CCCNC(=N)N)C(=O)N[C@@H](CCCNC(N)=O)C(=O)N1)C(N)=O [Example 12] (H-RR[Phe(4-NH2)]CY[Cit]K[dP]PYR[Cit]CR-NH2; disulfide 4-13)
Experimental Readout: FIGS % inhibition at 200 nM
U: %
Recorded Number: 71.3
//
Compound: N=C(N)NCCC[C@H](NC(=O)[C@@H]1CSSC[C@H](NC(=O)[C@H](Cc2ccc3ccccc3c2)NC(=O)[C@H](CCCNC(=N)N)NC(=O)[C@@H](N)CCCNC(=N)N)C(=O)N[C@@H](Cc2ccc(O)cc2)C(=O)N[C@@H](CCCNC(=N)N)C(=O)N2CCC[C@@H]2C(=O)N2CCC[C@H]2C(=O)N[C@@H](Cc2ccc(O)cc2)C(=O)N[C@@H](CCCNC(=N)N)C(=O)N1)C(N)=O [Example 5] (H-RR[2Nal]CYR[dP]PYRCR-NH2; disulfide 4-11; N-terminus assumed)
Experimental Readout: FIGS % inhibition at 200 nM
U: %
Recorded Number: 16.4
//
Compound: N=C(N)NCCC[C@H](NC(=O)[C@@H]1CSSC[C@H](NC(=O)[C@H](Cc2ccc3ccccc3c2)NC(=O)[C@H](CCCNC(=N)N)NC(=O)[C@@H](N)CCCNC(=N)N)C(=O)N[C@@H](Cc2ccc(O)cc2)C(=O)N[C@@H](CCCNC(N)=O)C(=O)N[C@@H](CCCCN)C(=O)N[C@H]2C[C@H]3C(=O)N[C@@H](CC(=O)N[C@@H](Cc4ccc(O)cc4)C(=O)N[C@@H](CCCNC(=N)N)C(=O)N[C@@H](CCCNC(N)=O)C(=O)N1)C(=O)N3C2)C(N)=O
Experimental Readout: FIGS % inhibition at 200 nM
U: %
Recorded Number: 29.6
//
Compound: N=C(N)NCCC[C@@H](N)C(=O)N[C@@H](CCCNC(=N)N)C(=O)N[C@@H](Cc1ccc2ccccc2c1)C(=O)N[C@H]1CSSC[C@@H](C(=O)N[C@@H](CCCNC(=N)N)C(N)=O)NC(=O)[C@H](CCCNC(N)=O)NC(=O)[C@H](CCCNC(=N)N)NC(=O)[C@H](Cc2ccc(O)cc2)NC(=O)[C@@H]2CCCN2C(=O)[C@H]2CCCN2C(=O)[C@H](CCCCN)NC(=O)[C@H](CCCNC(N)=O)NC(=O)[C@H](Cc2ccc(O)cc2)NC1=O [Example 10] (H-[dR]R[2Nal]CY[Cit]K[dP]PYR[Cit]CR-NH2; disulfide 4-13)
Experimental Readout: FIGS % inhibition at 200 nM
U: %
Recorded Number: 82.0
//
Compound: N=C(N)NCCC[C@H](NC(=O)[C@@H]1CSSC[C@H](NC(=O)[C@H](Cc2ccc3ccccc3c2)NC(=O)[C@H](CCCNC(=N)N)NC(=O)[C@@H](N)CCCNC(=N)N)C(=O)N[C@@H](Cc2ccc(O)cc2)C(=O)N[C@@H](CCCNC(=N)N)C(=O)N[C@H](CCCCN)C(=O)N2CCC[C@H]2C(=O)N[C@@H](Cc2ccc(O)cc2)C(=O)N[C@@H](CCCNC(N)=O)C(=O)N1)C(N)=O [Example 2] (H-RR[2Nal]CYR[dK]PY[Cit]CR-NH2; disulfide 4-11)
Experimental Readout: FIGS % inhibition at 200 nM
U: %
Recorded Number: 3.8
//
Compound: N=C(N)NCCC[C@H](NC(=O)[C@@H]1CSSC[C@H](NC(=O)[C@H](Cc2ccc3ccccc3c2)NC(=O)[C@H](CCCNC(=N)N)NC(=O)[C@@H](N)CCCNC(=N)N)C(=O)N[C@@H](Cc2ccc(O)cc2)C(=O)N[C@@H](CCCCN)C(=O)N[C@H](CCCCN)C(=O)N2CCC[C@H]2C(=O)N[C@@H](CCCNC(=N)N)C(=O)N[C@@H](CCCNC(N)=O)C(=O)N1)C(N)=O [Example 3] (H-RR[2Nal]CYK[dK]PR[Cit]CR-NH2; disulfide 4-11; N-terminus assumed)
Experimental Readout: FIGS % inhibition at 200 nM
U: %
Recorded Number: 5.7

The measurements presented in this section are drawn from patent US7838496B2.
